These data points were gathered from paper PMC8159961.

Target: human 5-HT1A receptor (Homo sapiens)
Construct: expressed in transfected cells
Sequence (P08908 whole entry): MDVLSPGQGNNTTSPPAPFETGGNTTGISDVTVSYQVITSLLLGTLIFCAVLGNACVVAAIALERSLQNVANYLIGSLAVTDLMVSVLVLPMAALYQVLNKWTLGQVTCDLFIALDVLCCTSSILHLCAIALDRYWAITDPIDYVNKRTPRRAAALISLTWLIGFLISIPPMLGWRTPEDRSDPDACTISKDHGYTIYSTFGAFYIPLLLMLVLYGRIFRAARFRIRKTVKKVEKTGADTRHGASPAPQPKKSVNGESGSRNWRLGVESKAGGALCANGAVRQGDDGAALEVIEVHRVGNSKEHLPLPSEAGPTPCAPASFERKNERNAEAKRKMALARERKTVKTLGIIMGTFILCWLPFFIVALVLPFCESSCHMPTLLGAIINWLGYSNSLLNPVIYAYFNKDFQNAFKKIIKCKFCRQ
Assay: GPCR radioligand binding assay, [3H]-8-OH-DPAT displacement, HEK293 membranes
Details: 5-HT1A; average of exp_1 and exp_2
Would you mind telling me the reported %inh 5-HT1A average of each entry?
Value expressed in %; do not type the unit.

Query: Entry Cc1nc(-c2ccccc2)cs1 [A7] : reported %inh 5-HT1A average = ?
Response: -4.34

Query: Value lookup for %inh 5-HT1A average; key = CC1C(=O)NC(=O)N1c1ccc(Cl)cc1 (stereo not drawn) [E3]
Response: -4

Query: Would you kindly share the measured %inh 5-HT1A average for COc1ccc(C2=CCNCC2)cc1 [G1] ?
Response: 17

Query: I am curious: what %inh 5-HT1A average value has been reported for Cc1ccc(CCNc2ccccc2)cn1 [H11] ?
Response: 5

Query: Tell me the measured %inh 5-HT1A average of Brc1ccc(-c2ccon2)cc1 [A9] , please.
Response: 3.49

Query: Field request: %inh 5-HT1A average | item: O=C(Nc1ccccc1)C1CC1 [F6]
Response: 12

Query: Record request: %inh 5-HT1A average value, item c1ccc2oc(C3CCCNC3)nc2c1 (stereo not drawn) [D10]
Response: 78

Query: Given CC(=O)c1ccc2c(c1)CCCN2 [C7] , state its recorded %inh 5-HT1A average.
Response: 2.29

Query: Give its %inh 5-HT1A average value. Item: O=c1ccc2c([nH]1)CCCC2 [C5]
Response: -1.35

Query: Which %inh 5-HT1A average is listed for NCC1(c2ccccc2)CCOCC1 [F10] ?
Response: 11

Query: What value of %inh 5-HT1A average has been reported for the following compound? CC(=O)c1ccc2c(c1)CNCC2 [C8]
Response: -13

Query: GET /values?readout=%inh 5-HT1A average&item= O=C(CN1CCCC1)c1ccccc1Cl [G10]
Response: 78

Query: # query: %inh 5-HT1A average of entry FC1(F)CNCC(F)(F)O1 [H3]
Response: -7

Query: Can you look up the measured %inh 5-HT1A average of O=C1CCN(c2ccccn2)CC1 [G8] for me?
Response: -7

Query: Reported %inh 5-HT1A average for Nc1ccc(-c2ccccc2)cc1C(=O)O [G9] : what is it?
Response: 15

Query: Any idea what its %inh 5-HT1A average is? The compound is Oc1nnc(-c2ccccc2)o1 [F7]
Response: -4

Query: Reported %inh 5-HT1A average, compound Cc1cc(-c2ccccc2)n[nH]1 [A8] : ____
Response: 9

Query: Sample COc1ccc(CN2CCNCC2)cc1F [D11] — what was its %inh 5-HT1A average?
Response: -7

Query: Return reported %inh 5-HT1A average; argument: O=C(O)C1CCCN(C(=O)N2CCCC2)C1 (stereo not drawn) [G6]
Response: 5

Query: Bench note: what %inh 5-HT1A average did Nc1ccc(SC(F)F)cc1 [D1] show?
Response: -16

Query: What does the data say about its %inh 5-HT1A average? Entry: CCc1ccc(NC2=NCCCS2)cc1 [D2]
Response: 29

Query: Which %inh 5-HT1A average is listed for O=C1NC(=O)C2(CCc3ccccc32)N1 (stereo not drawn) [B7] ?
Response: -12

Query: %inh 5-HT1A average lookup needed for CCn1cnc2ccccc21 [D4] , thanks.
Response: -8

Query: If you can, please state the reported %inh 5-HT1A average value of O=C(CN1CCNCC1)c1ccccc1 [E5] .
Response: 6

Query: Which value of %inh 5-HT1A average has been reported for NC1CCc2ccccc21 (stereo not drawn) [B4] in the records?
Response: 17

Query: I have this compound here, Cc1cc(C)c2c(=O)[nH]n(C)c2n1 [F12] , and I need its recorded %inh 5-HT1A average.
Response: 5.64

Query: Requested read-out: %inh 5-HT1A average. Entry: O=C1CC(CSc2ccc(Cl)cc2)=NN1 [H8]
Response: -0.353

Query: Could you share which %inh 5-HT1A average value was measured for O=C(O)CC1CCC(=O)N1 (stereo not drawn) [H2] ?
Response: -0.447

Query: // %inh 5-HT1A average lookup, key: O=C1CCC(=O)N(c2ccccc2)N1 [H7]
Response: 6

Query: I am curious: what %inh 5-HT1A average value has been reported for COC(=O)c1c(C)nc(C2CC2)[nH]c1=O [F1] ?
Response: 16

Query: Returns the measured %inh 5-HT1A average for the input compound. Input: COc1ccccc1N1CCNCC1 [A10]
Response: 102

Query: Look at this compound and give its reported %inh 5-HT1A average. O=C(c1ccccc1)N1CCC(CO)CC1 [H9]
Response: 11

Query: What does the record list as %inh 5-HT1A average for CC(CN)N1CCc2sccc2C1 (stereo not drawn) [F9] ?
Response: 33

Query: Please look up its %inh 5-HT1A average: CN(C)c1cc(CN)ccn1 [G3]
Response: 11

Query: Give its %inh 5-HT1A average value. Item: N#CCCN1CCc2ccccc21 [F4]
Response: -7

Query: Data request, read-out %inh 5-HT1A average, for CC1(C)OC(=O)c2cc(Br)c(O)cc2O1 [C6]
Response: -0.191

Query: Field request: %inh 5-HT1A average | item: Fc1ccc(CC2CCCNC2)cc1 (stereo not drawn) [C1]
Response: 21

Query: So what does the record say about %inh 5-HT1A average for O=C(c1ccncc1)N1CCNCC1 [E2] ?
Response: 3.69

Query: Give the measured %inh 5-HT1A average of Cc1cnc(C(F)(F)F)cn1 [B9] .
Response: 1.1

Query: Please give the measured %inh 5-HT1A average for this compound: CCCN1C(=O)CC(=O)NC1=S [D5]
Response: -8.49

Query: What value of measured %inh 5-HT1A average is listed for O=C(O)c1cccc(Nc2ncccn2)c1 [F5] ?
Response: 10

Query: Endpoint output: %inh 5-HT1A average of Oc1ccc(-n2cncn2)cc1 [H5] . Value?
Response: -1.29

Query: # lookup: %inh 5-HT1A average of N#CC1CCS(=O)(=O)C1 (stereo not drawn) [F2]
Response: -0.934

Query: Given Clc1ccc2nnnn2n1 [E6] , state its recorded %inh 5-HT1A average.
Response: 3.55

Query: What does the record list as %inh 5-HT1A average for COc1ccccc1C1CCNCC1 [A11] ?
Response: 99

Query: I am curious: what %inh 5-HT1A average value has been reported for C1=C[C@H]2O[C@@H]1c1ccccc12 [C11] ?
Response: -11

Query: Endpoint output: %inh 5-HT1A average of Oc1cnc(-c2ccccc2)nc1 [F11] . Value?
Response: 6.48

Query: # get_value(readout='%inh 5-HT1A average', item= c1ccc2sc(N3CCNCC3)nc2c1 [G5] )
Response: 83

----------
Target: human 5-HT6 receptor (Homo sapiens)
Construct: expressed in transfected cells
Sequence (P50406 whole entry): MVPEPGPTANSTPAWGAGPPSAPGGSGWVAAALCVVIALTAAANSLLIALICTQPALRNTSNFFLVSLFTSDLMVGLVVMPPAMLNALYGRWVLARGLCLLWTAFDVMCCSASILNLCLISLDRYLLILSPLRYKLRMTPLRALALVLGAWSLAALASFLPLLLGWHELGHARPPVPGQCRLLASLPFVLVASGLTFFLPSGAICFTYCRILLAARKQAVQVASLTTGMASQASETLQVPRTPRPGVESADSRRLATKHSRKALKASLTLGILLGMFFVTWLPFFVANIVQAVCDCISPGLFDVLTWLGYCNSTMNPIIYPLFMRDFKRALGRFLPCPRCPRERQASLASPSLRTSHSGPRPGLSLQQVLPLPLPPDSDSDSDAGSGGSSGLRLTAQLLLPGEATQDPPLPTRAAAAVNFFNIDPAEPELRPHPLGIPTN
Assay: GPCR radioligand binding assay, [3H]-LSD displacement, HEK293 membranes
Conditions: 5-HT6; average, values below 0 and above 100% were set as 0 and 100; read-out: %inh 5-HT6 corrected*
RECORDED METRIC: inhibition at 10 µM (%)
Form entry: value (%) — number only.

Query: Look at this molecule and give its reported inhibition at 10 µM. O=C(O)c1cnc(-c2ccccc2)s1
Response: 41

Query: Recorded inhibition at 10 µM for c1cnc2ncccc2c1 , please?
Response: 48

Query: Sample Cc1cc2ccccc2nc1N — what was its inhibition at 10 µM?
Response: 33

Query: # input molecule: c1ccc(Nc2nncs2)cc1 ; wanted: its inhibition at 10 µM
Response: 1.55

Query: Give the measured inhibition at 10 µM of CS(=O)(=O)Nc1ccc(C(=O)O)cc1 .
Response: 38

Query: Quick one: inhibition at 10 µM of Cn1c(N)nc2ccccc21 ?
Response: 25

Query: Value lookup for inhibition at 10 µM; key = c1cnc2cccnc2c1
Response: 24

Query: Returns the measured inhibition at 10 µM for the input molecule. Input: Nc1nnc2ccccn12
Response: 40

Query: Return reported inhibition at 10 µM; argument: O=C1NC(=O)/C(=C\c2cccs2)N1
Response: 32

----------
Target: human thrombin (Homo sapiens, UniProt P00734)
Construct: human thrombin; purchased Sigma-Aldrich
Experiment: Protease inhibitory assay, chromogenic substrate S-2238
Type: biochemical
Settings: Thrombin; substrate 40 µM; cmpd conc 200 µM; one of two values averaged in Supplementary Data 1; read-out: Ki
Field: pKi. Provide a value for each of the compounds that follow.
Conceptually, pKi converts a concentration in mol/L into minus its log10.

Query: Consider the compound shown here: CC(=O)c1sc(-c2ccc(O)cc2)nc1C [SX-E1] What is its recorded pKi?
Response: 3.68

Query: I would be grateful if you could share the reported pKi for O=C(O)c1cnc(-c2ccccc2)s1 [SX-F3] .
Response: 3.61

Query: Form field: reported pKi of NC(=O)N1CCC(C(=O)O)CC1 [SX-D12]
Response: 3.48

Query: Bench note: what pKi did CC1CCc2sc(C(=O)O)cc2C1 (stereo not shown) [SX-D9] show?
Response: 4.14

Query: What pKi value was documented for this compound, Nc1nnc(-c2cccs2)[nH]1 [SX-D3] ?
Response: 3.80

Query: What value of measured pKi is listed for c1cnc2cccnc2c1 [SX-A2] ?
Response: 3.78

Query: Field request: pKi | item: O=C(O)C1CCN(c2ncccn2)CC1 [SX-E9]
Response: 4.06
